MEASUREMENT TARGET: N2P2 (NHERF2 PDZ2) (Homo sapiens)
Sequence (Q15599 150-230 limits assumed): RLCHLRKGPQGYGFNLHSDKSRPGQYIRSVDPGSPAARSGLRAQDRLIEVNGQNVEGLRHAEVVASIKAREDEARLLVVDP
TEST PROTOCOL: FP displacement binding to NHERF2 PDZ2
Ends that are not written are not given here.
PROPERTY NAME: Ki

Recorded results for 2 sequences are shown here.
• ANSRWQDTRL [iCAL36QDTRL] = 1.1 µM
• ANSRVQDTRL [iCAL36VQDTRL] = 0.94 µM

Now look at this entry.
Ask | Ki lookup needed for ANSRWPTTRL [iCAL36TRL] , thanks.
Reply | 16.5 µM
